# TESTED ON: T1, exemplary TAT frataxin fusion molecule (HIV-1, UniProt Q16595 1-210)
# T1 construct: in the bridging assays biotinylated and sulfotagged forms were used; also called TAT-FXN fusion molecule; TAT FXN fusion molecule
# T1 sequence: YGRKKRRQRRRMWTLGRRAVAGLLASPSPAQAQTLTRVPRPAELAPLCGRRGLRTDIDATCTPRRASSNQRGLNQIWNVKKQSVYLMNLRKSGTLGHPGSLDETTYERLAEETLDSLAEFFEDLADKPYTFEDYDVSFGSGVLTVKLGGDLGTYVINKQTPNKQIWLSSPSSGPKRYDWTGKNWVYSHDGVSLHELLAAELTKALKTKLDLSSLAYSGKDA
# ASSAY COMMENT: PK sandwich ELISA in human plasma, antibody as capture, HRP anti-frataxin mAb detection
MEASUREMENT KIND: S/N at plasma conc. 3.20 ng/mL

BINDER: antibody 12-8 (antibody, V domains shown, Rabbit monoclonal) VH: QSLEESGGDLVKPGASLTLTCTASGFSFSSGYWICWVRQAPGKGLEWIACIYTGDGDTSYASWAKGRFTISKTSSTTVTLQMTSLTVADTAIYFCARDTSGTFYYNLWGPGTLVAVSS VL: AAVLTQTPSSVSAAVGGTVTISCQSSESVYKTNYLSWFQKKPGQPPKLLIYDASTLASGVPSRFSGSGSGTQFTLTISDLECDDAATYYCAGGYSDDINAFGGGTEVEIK
S/N at plasma conc. 3.20 ng/mL: 4.8

BINDER: antibody 10-5 (antibody, V domains shown, Rabbit monoclonal) VH: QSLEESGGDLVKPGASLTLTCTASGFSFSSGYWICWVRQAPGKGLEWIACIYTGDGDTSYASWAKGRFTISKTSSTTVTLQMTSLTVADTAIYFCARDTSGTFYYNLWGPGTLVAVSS VL: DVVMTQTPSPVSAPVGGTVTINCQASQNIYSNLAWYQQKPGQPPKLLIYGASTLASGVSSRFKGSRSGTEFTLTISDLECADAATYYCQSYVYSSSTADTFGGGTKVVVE
S/N at plasma conc. 3.20 ng/mL: 4.9

Would you kindly look at the next entry?
Quick note, S/N at plasma conc. 3.20 ng/mL for antibody 12-1 (antibody, V domains shown, Rabbit monoclonal) VH: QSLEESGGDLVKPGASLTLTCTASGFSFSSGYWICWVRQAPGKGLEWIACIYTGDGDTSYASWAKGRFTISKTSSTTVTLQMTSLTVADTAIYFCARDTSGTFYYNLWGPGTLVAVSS VL: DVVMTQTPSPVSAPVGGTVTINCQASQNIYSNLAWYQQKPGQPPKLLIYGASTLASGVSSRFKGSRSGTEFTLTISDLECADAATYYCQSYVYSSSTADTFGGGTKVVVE landed at 4.9
